Data provenance is patent US20230087118A1.

Target Of Assay: IRAK4 (Homo sapiens)
Sequence (Q9NWZ3 whole entry): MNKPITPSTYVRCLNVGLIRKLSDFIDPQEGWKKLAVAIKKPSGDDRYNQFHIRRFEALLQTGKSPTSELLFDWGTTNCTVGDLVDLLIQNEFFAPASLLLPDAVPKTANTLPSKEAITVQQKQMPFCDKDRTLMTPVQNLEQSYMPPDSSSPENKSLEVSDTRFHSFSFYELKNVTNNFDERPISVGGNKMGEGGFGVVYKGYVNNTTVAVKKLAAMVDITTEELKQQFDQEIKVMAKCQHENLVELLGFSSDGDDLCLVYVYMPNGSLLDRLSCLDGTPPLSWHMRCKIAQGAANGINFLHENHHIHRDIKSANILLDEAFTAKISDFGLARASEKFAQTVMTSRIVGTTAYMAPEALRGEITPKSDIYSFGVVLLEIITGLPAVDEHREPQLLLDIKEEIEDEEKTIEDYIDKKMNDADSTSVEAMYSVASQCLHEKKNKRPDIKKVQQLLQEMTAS
Protocol Description: biochemical
Experimental Context: IRAK4 Biochemical Assay (1 mM ATP, 2 h) IC50 (μM), 1 mM ATP, 2 h, 100 pM IRAK4
Where a name gives a salt, the structure may show the parent alone.
Below, each entry is listed with its recorded IC50.
Record the value in µM, omitting the unit from your answer.

molecule=COc1cccc(NC(=O)c2cn3cc([C@@]45COC[C@@H]4C5)nc3cc2OC)n1 value=0.0735
molecule="CCOc1nc(C(=O)Nc2cccnc2OC)cn2cc(C3CC3)nc12 [Example 279, trifluoroacetate]" value=0.0038
molecule=COc1cccc(NC(=O)c2cn3cc(C45COC(C)(C4)C5)nc3cc2OC(C)C)n1 value=0.0003

I am curious: what IC50 value has been reported for CC(C)Oc1cc2nc(C34COC(C)(C3)C4)cn2cc1C(=O)Nc1nccc(C(F)F)n1 [Example 295, trifluoroacetate] ?
0.0097
